- assay.system: T1, truncated variant of TgCEN1 lacking the first 21 residues (Δ21TgCEN1, 22–169) (Toxoplasma gondii, UniProt A0A125YHX7 22-169)
- T1 sequence (looked up): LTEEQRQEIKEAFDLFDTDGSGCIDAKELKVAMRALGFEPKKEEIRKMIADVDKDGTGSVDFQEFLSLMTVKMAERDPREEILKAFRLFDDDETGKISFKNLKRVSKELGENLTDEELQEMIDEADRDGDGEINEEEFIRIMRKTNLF
- test.description: ITC
pKd: −log10 of the molar value.
result.type: pKd

| binder | endpoint.result |
| --- | --- |
| NWKLLAKGLLIRERLKR [P17-XPC peptide (17-residue peptide of the human xeroderma pigmentosum group C protein, N847-R863)] | 7.23 |
